Data provenance is patent US20020137929A1.

Test system: ECHCG (Barnyardgrass)
EXPERIMENT_SUMMARY: Postemergence herbicidal evaluation
Type: in vivo, Echinochloa crus-galli
CONDITION: postemergence, rate 0.1250 kg/ha
MEASUREMENT_LABEL: ECHCG herbicidal rating
# answer = number (no unit)

(Q) Suppose we examine the compound CCC1SC(=Nc2cc(-n3c(=O)cc(C(F)(F)F)n(C)c3=O)c(F)cc2Cl)N(C)C1=O (centres unmarked) ; what ECHCG herbicidal rating value has been reported?
(A) 1.0

(Q) Please answer likewise for CCOC(=O)CN1C(=O)C(C)SC1=Nc1cc(-n2c(=O)cc(C(F)(F)F)n(C)c2=O)c(F)cc1Cl (centres unmarked)
(A) 9.0

(Q) Please answer likewise for CC1SC(=Nc2cc(-n3c(=O)cc(C(F)(F)F)n(C)c3=O)c(F)cc2Cl)N(C)C1=O (centres unmarked)
(A) 4.5

(Q) Please answer likewise for C=CCN1C(=O)C(CC(=O)NOC)SC1=Nc1cc(-n2c(=O)cc(C(F)(F)F)n(C)c2=O)c(F)cc1Cl (centres unmarked)
(A) 9.0

(Q) Please answer likewise for CCOC(=O)CN1C(=O)C(CC(=O)OC(C)C(=O)OCC)S/C1=N/c1cc(-n2c(=O)cc(C(F)(F)F)n(C)c2=O)c(F)cc1Cl (centres unmarked)
(A) 9.0

(Q) Please answer likewise for "O=C1CSC(=Nc2cc(N3C(=O)C4=C(CCCC4)C3=O)c(F)cc2Cl)N1c1ccccc1"
(A) 0.0

(Q) Please answer likewise for C=CCN1C(=O)C(CC(=O)OC(C)C)SC1=Nc1cc(-n2c(=O)cc(C(F)(F)F)n(C)c2=O)c(F)cc1Cl (centres unmarked)
(A) 9.0

(Q) Please answer likewise for CN1C(=O)C(CC(=O)NS(C)(=O)=O)SC1=Nc1cc(-n2c(=O)cc(C(F)(F)F)n(C)c2=O)c(F)cc1Cl (centres unmarked)
(A) 6.0

---

Test system: ECHORC (Watergrass (Calif.))
EXPERIMENT_SUMMARY: Preemergence weed control under flooded paddy conditions
Assay type: in vivo, Echinochloa oryzoides
CONDITION: 0.2500 kg/ha, rated 3-4 weeks after treatment
Can you tell me herbicidal effect rating, ECHORC for the items I'm about to list?

(Q) Suppose we examine the molecule Cc1ccc(CN2C(=O)CSC2=Nc2cc(-n3c(=O)cc(C(F)(F)F)n(C)c3=O)c(F)cc2Cl)cc1C [Compound 147] ; what herbicidal effect rating, ECHORC value has been reported?
(A) 9.0

(Q) Please answer likewise for COc1ccc(CN2C(=O)CSC2=Nc2cc(-n3c(=O)cc(C(F)(F)F)n(C)c3=O)c(F)cc2Cl)cc1OC [Compound 134]
(A) 2.0

(Q) Please answer likewise for CCOC(=O)CN1C(=O)C(CC(=O)NS(=O)(=O)C(C)C)SC1=Nc1cc(-n2c(=O)cc(C(F)(F)F)n(C)c2=O)c(F)cc1Cl (stereo not drawn) [Compound 117]
(A) 0.0

(Q) Please answer likewise for COC(=O)CSCCN1C(=O)CSC1=Nc1cc(-n2c(=O)cc(C(F)(F)F)n(C)c2=O)c(F)cc1Cl [Compound 158]
(A) 9.0

(Q) Please answer likewise for CCOC(=O)CN1C(=O)CSC1=Nc1cc(N2C(=O)CC(C(F)(F)F)CC2=O)c(F)cc1Cl [Compound 169]
(A) 2.0

(Q) Please answer likewise for Cn1c(C(F)(F)F)cc(=O)n(-c2cc(N=C3SCC(=O)N3Cc3ccccc3Cl)c(Cl)cc2F)c1=O [Compound 143]
(A) 9.0

(Q) Please answer likewise for CCCN1C(=O)CSC1=Nc1cc(-n2c(=O)cc(C(F)(F)F)n(C)c2=O)c(F)cc1Cl [Compound 171]
(A) 9.0

(Q) Please answer likewise for CCOC(=O)CN1C(=O)C(Cl)SC1=Nc1cc(-n2c(=O)cc(C(F)(F)F)n(C)c2=O)c(F)cc1Cl (stereo not drawn) [Compound 126]
(A) 7.0

(Q) Please answer likewise for COc1cccc(CN2C(=O)CSC2=Nc2cc(-n3c(=O)cc(C(F)(F)F)n(C)c3=O)c(F)cc2Cl)c1 [Compound 137]
(A) 5.0

(Q) Please answer likewise for Cn1c(C(F)(F)F)cc(=O)n(-c2cc(N=C3SCC(=O)N3Cc3cccc(C(F)(F)F)c3)c(Cl)cc2F)c1=O [Compound 142]
(A) 7.0

(Q) Please answer likewise for C=CCN1C(=O)C(CC(=O)NS(=O)(=O)C(C)C)SC1=Nc1cc(-n2c(=O)cc(C(F)(F)F)n(C)c2=O)c(F)cc1Cl (stereo not drawn) [Compound 118]
(A) 6.0

(Q) Please answer likewise for Cn1c(C(F)(F)F)cc(=O)n(-c2cc(N=C3SCC(=O)N3CC(F)(F)F)c(Cl)cc2F)c1=O [Compound 163]
(A) 9.0
